# test target: T1, Aggregatibacter actinomycetemcomitans leukotoxin (LtxA) (Aggregatibacter actinomycetemcomitans …, UniProt P16462 1-1055)
# T1 sequence: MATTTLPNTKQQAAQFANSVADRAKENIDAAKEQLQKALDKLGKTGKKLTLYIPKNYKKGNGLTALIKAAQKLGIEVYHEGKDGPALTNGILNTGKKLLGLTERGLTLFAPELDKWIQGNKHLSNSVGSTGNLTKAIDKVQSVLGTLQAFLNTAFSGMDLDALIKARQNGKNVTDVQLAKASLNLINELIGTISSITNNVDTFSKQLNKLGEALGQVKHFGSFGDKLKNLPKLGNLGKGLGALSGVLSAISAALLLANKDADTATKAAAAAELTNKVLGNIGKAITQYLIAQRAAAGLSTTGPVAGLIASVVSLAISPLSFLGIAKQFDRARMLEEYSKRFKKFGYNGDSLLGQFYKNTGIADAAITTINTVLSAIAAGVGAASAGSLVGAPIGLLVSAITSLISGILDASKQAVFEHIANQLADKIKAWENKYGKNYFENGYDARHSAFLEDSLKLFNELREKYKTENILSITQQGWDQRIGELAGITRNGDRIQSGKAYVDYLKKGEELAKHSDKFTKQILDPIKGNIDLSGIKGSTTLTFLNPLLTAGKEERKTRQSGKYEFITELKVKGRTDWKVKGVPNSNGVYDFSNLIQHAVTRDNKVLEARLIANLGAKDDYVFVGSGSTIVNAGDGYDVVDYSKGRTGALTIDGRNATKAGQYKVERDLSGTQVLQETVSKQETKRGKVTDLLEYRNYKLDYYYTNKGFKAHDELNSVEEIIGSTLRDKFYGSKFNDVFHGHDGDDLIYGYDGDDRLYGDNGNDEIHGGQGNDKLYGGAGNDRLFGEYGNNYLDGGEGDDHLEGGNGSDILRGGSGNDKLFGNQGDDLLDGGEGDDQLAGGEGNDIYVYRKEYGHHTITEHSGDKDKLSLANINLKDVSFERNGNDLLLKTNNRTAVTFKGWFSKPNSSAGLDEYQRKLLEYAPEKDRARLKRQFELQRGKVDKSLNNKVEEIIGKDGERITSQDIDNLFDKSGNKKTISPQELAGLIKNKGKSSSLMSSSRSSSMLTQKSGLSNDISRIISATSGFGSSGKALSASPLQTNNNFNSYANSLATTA
# test method notes: SPR
Recorded Ka, one value per entry.
Numeric answer only, unit M⁻¹ assumed.

In the examples that follow, each entry is paired with its recorded Ka.
• CKLGFFKRQYKDMMSEGGSPGAEPQ [αM cytoplasmic tail peptide (integrin αM)] = 2.5e+06
• CKVGFFKRNLKEKMEAGRGVPNGI [αLN peptide (N-terminal, membrane-proximal part of the αL cytoplasmic tail)] = 6.6e+07

Task: // lookup Ka for αL cytoplasmic tail peptide (integrin αL, LFA-1 α subunit) (peptide) peptide: CKVGFFKRNLKEKMEAGRGVPNGIPAEDSEQLASGQEAGDPGSLKPLHEKDSESGGGKD
Output: 6.9e+07
